studySystem: T1, recombinant human MASP1 active protease (amino acids 297-699, C-terminal His Tag) (human, UniProt P48740 297-699)
T1 sequence: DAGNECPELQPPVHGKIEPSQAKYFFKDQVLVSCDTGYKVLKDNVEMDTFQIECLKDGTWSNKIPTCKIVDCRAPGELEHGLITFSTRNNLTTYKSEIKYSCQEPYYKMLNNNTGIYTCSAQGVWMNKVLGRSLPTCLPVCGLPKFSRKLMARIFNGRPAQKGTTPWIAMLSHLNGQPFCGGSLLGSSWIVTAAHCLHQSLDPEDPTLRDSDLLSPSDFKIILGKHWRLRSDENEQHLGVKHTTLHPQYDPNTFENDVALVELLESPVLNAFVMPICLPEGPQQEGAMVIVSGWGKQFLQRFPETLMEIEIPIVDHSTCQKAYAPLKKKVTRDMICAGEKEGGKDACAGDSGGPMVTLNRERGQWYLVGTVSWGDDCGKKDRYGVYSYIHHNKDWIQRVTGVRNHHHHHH
protocolDescription: cell-based or functional assay
Numbered stars: 1 amine (or outer) side, 2 acyl side, 3 side chain; on linkers, the order of the positions; unused ones are H or OH. Bridge positions count the residues as written; N and C are the ends. Square brackets hold non-standard residues; d marks the D form. Primed or numbered codes have the meaning given here. Ends that are not written are not given here. * marks the point of attachment. Tranexamic″ = tranexamic acid, NC[C@H]1CC[C@@H](C(=O)*)CC1; NH(CH2CH2O)4CH2CO = O=C(COCCOCCOCCOCCN[*:1])[*:2]; Oic = O=C(O)[C@@H]1C[C@@H]2CCCC[C@@H]2N1; tBuAla = CC(C)(C)C[C@H](N)C(=O)O; Pen = CC(C)(S)[C@H](N)C(=O)O; Tle = CC(C)(C)[C@H](N)C(=O)O; Sar = CNCC(=O)O
readout: human MASP1 IC50 (nM)
Write it as a number; the unit nM goes unstated.

Consider the following illustrative entries.
binder: [Sar]ICSRSLPPICIP[dD]-OH (disulfide 3-11; N-terminus assumed; SMILES CC[C@H](C)[C@H](NC(=O)CNC)C(=O)N[C@H]1CSSC[C@@H](C(=O)N[C@H](C(=O)N2CCC[C@H]2C(=O)N[C@H](CC(=O)O)C(=O)O)[C@@H](C)CC)NC(=O)[C@H]([C@@H](C)CC)NC(=O)[C@@H]2CCCN2C(=O)[C@@H]2CCCN2C(=O)[C@H](CC(C)C)NC(=O)[C@H](CO)NC(=O)[C@H](CCCNC(=N)N)NC(=O)[C@H](CO)NC1=O) [Example 312: ((N-Me)G)-IC+SRSLPPIC+IPd-OH]
number: 21
--
binder: AICSRS[Tle]PPICIPD-NH2 (disulfide 3-11; N-terminus assumed; SMILES CC[C@H](C)[C@H](NC(=O)[C@H](C)N)C(=O)N[C@H]1CSSC[C@@H](C(=O)N[C@H](C(=O)N2CCC[C@H]2C(=O)N[C@@H](CC(=O)O)C(N)=O)[C@@H](C)CC)NC(=O)[C@H]([C@@H](C)CC)NC(=O)[C@@H]2CCCN2C(=O)[C@@H]2CCCN2C(=O)[C@H](C(C)(C)C)NC(=O)[C@H](CO)NC(=O)[C@H](CCCNC(=N)N)NC(=O)[C@H](CO)NC1=O) [Example 411: AIC+SRS-((tBu)G)-PPI-C+IPD-NH2]
number: 76
--
binder: [Sar]ICSRSLP[Oic]I[Pen]IP[(2S)‑3‑(Triazol-1-yl)‑2‑(amino)propanoic acid]-NH2 (disulfide 3-11) [Example 437: ((N-Me)G)-IC+SRSLP-(Oic)-I-(Pen)+IP-((2S)-3-(Triazol-1-yl)-2-(amino)propanoic acid)-NH2]
number: 2.2

Query: Quick check: human MASP1 IC50 of {(2S,3S)‑2‑((3S)-2-oxopiperazin-1-yl)‑3‑methylpentanoic acid}-CSRSLPPICIAD-OH (disulfide 1-9) [Example 393: ((2S,3S)-2-[(3S)-2-oxopiperazin-1-yl]-3-methylpentanoic acid)-C+SRSLPPIC+IAD-OH] ?
Result: 49

Query: Would you mind doing {Tranexamic″}-ICSRS[tBuAla]PPI[Pen]IP-{NH(CH2CH2O)4CH2CO-NH2} (disulfide 2-10; SMILES CC[C@H](C)[C@@H]1NC(=O)[C@@H]2CCCN2C(=O)[C@@H]2CCCN2C(=O)[C@H](CC(C)(C)C)NC(=O)[C@H](CO)NC(=O)[C@H](CCCNC(=N)N)NC(=O)[C@H](CO)NC(=O)[C@@H](NC(=O)[C@@H](NC(=O)[C@H]2CC[C@@H](CN)CC2)[C@@H](C)CC)CSSC(C)(C)[C@@H](C(=O)N[C@H](C(=O)N2CCC[C@H]2C(=O)NCCOCCOCCOCCOCC(N)=O)[C@@H](C)CC)NC1=O) [Example 422: (Tranexamic)-IC+SRS-((tBu)A)-PPI-(Pen)+IP-(PEG4-CH2CO2H (15 atoms))-NH2] as well?
Result: 8.1
